Assign switch fluorescence ratio to each entry below.
Test system: ATP;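 also: ATP exposure 15 min at 22 °C before imaging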
Test: switch fluorescence ratio, 500 uM ATP over buffer (Cy3 cluster intensity, sum of 5 cycles each) (fold (ratio)); higher = stronger signal-on switching upon ATP binding; sequences stand for … in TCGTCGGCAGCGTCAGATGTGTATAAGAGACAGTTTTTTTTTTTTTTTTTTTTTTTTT…TC
Details: aptamer strand: ATP DNA aptamer (quencher-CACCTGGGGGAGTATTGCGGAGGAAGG + anchor), 100 nM annealed; ATP concentration: 500 uM
Answers are plain numbers.

Quick request: switch fluorescence ratio for each listed item, please.
1. TCTGAAGATT
2. ATAGGCTAGT

1: 0.999; 2: 1.02

Quick request: switch fluorescence ratio for each listed item, please.
1. AAGGTGTTGT
2. GATGTAGTTT

1: 1.04; 2: 0.993

Quick request: switch fluorescence ratio for each listed item, please.
1. TCGTTCTGGG
2. TTGGTTTTCT

[0.996, 0.994]

Quick request: switch fluorescence ratio for each listed item, please.
1. TTAAAGATTT
2. TTGGGGGTAG

[1.07, 1.04]

Quick request: switch fluorescence ratio for each listed item, please.
1. ATCGTTGGG
2. CATGCTTTGT

1.01
0.992

Quick request: switch fluorescence ratio for each listed item, please.
1. AATATTAGGT
2. GACCACGCTG
3. TTGAGGGAAT
4. TACACTGAAT

1. 0.995
2. 1.04
3. 0.992
4. 1.01

Quick request: switch fluorescence ratio for each listed item, please.
1. TAAAGGGGTG
2. ATCGGGGGCC
3. ACAGGGTTTC
4. TTCTGTGGCG
5. GCTGGGGGCT
6. GGGTTAAGGC
7. TTATTTAAAG

[1.01, 0.973, 0.985, 1, 1.01, 1.01, 1.02]

###

Tested on: ATP;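 also: ATP exposure 15 min at 22 °C before imaging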
Assay: switch fluorescence ratio, 500 uM ATP over buffer (Cy3 cluster intensity, sum of 5 cycles each) (fold (ratio)); higher = stronger signal-on switching upon ATP binding; sequences stand for … in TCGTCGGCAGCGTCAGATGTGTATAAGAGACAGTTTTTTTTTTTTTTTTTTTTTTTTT…TC
Settings: aptamer strand: ATP DNA aptamer (quencher-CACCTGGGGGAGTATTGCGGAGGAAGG + anchor), 100 nM annealed; ATP concentration: 500 uM
Quantity: switch fluorescence ratio
Give bare numbers.

A selection of reference data follows.
[[record]]
residue_sequence = "GGGGGAGGGT"
target_or_test_system = "ATP"
quantity = "switch fluorescence ratio"
result_value = 0.997

[[record]]
residue_sequence = "AGTGTACTCG"
target_or_test_system = "ATP"
quantity = "switch fluorescence ratio"
result_value = 1.04

[[record]]
residue_sequence = "GGAAATAGTG"
target_or_test_system = "ATP"
quantity = "switch fluorescence ratio"
result_value = 0.966

[[record]]
residue_sequence = "TAGTTAGGGG"
target_or_test_system = "ATP"
quantity = "switch fluorescence ratio"
result_value = 1.01


Quick request: switch fluorescence ratio for each listed item, please.
1. CGGGGCCGGG
2. CGGGACAGGG
3. AATTTTTTCG

0.996
1
0.992

Quick request: switch fluorescence ratio for each listed item, please.
1. TAGTGATGTT
2. GAGATGGGGC
3. TGATTGCCGG
4. AGCGTCATGC

[0.983, 1.09, 0.996, 1.04]

Quick request: switch fluorescence ratio for each listed item, please.
1. CCATTGTAAT
2. CATCAGGCAC
3. GGAGGGAGGA
4. GCTTCGGCCT
5. AGGGCAGTTG
6. TTTTTATCA

1.1
1.2
1.25
1.02
0.97
0.98
